Taken from paper PMC2801429.

ASSAY OVERVIEW: Brain deposition of GSPE phenolic constituents
Format: in vivo, Sprague Dawley rats
CONDITION DETAILS: 10 day repeated GSPE pretreatment prior to pharmacokinetic dose; rats

COMPOUND | Detection in brain tissue
Oc1cc(O)c2c(c1)O[C@H](c1ccc(O)c(O)c1)[C@H](O)C2 [EC, (−)-epicatechin] | detectable levels
Oc1cc(O)c2c(c1)OC(c1ccc(O)c(O)c1)C(O)C2 (single isomer, unassigned; (+)) [C, (+)-catechin] | detectable levels
